The measurements presented in this section are drawn from ChEMBL document CHEMBL4689842.

Test system: HEK-293T
Experiment: Incucyte cell viability with HEK293T; also: filed as whole numbers so only -1 and 0 and 1 occur
Format: toxicity, cell-based
Settings: human, 18 h, 10 µM, compound concentration 10 uM, replicate number 1, timepoint 18 hours
property-name: Growth Rate
The answer should be written as a number, with no unit following it.

molecule	Growth Rate
CCC(=O)Nc1cccc(Oc2nc(Nc3ccc(N4CCN(C)CC4)cc3OC)ncc2Cl)c1	0

Q: Consider the molecule Cc1nc(C(=O)N2CCC[C@H]2Cc2nnc(-c3ccccc3)o2)c(-c2ccccc2F)s1 and give its measured Growth Rate.
A: 0

Q: Consider the molecule Cl.N#Cc1ccc2[nH]cc(CCCCN3CCN(c4ccc5oc(C(N)=O)cc5c4)CC3)c2c1 [VILAZODONE HYDROCHLORIDE] and give its measured Growth Rate.
A: 0

Q: Consider the molecule CNC(=NCCSCc1csc(N=C(N)N)n1)NC#N and give its measured Growth Rate.
A: 0

Q: Consider the molecule CN([C@@H]1CCc2c(CC(=O)O)c3cc(S(C)(=O)=O)ccc3n2C1)S(=O)(=O)c1ccc(F)cc1 [CRTH2-negative-control] and give its measured Growth Rate.
A: 0

Q: Consider the molecule COc1cccc(OC)c1-c1cc(C(=O)NC2(C(=O)O)C3CC4CC(C3)CC2C4)nn1-c1ccc(C(=O)N(C)CCCN(C)C)cc1C(C)C (configuration not stated) and give its measured Growth Rate.
A: 1

Q: Consider the molecule COc1ccc(C2(O)OC(=O)C(c3ccc4c(c3)OCO4)=C2Cc2cc(OC)c(OC)c(OC)c2)cc1 (configuration not stated) and give its measured Growth Rate.
A: 0

Q: Consider the molecule NC(=O)Nc1cc(-c2cccc(F)c2)sc1C(=O)N[C@H]1CCCNC1 and give its measured Growth Rate.
A: 0

Q: Consider the molecule Cc1[nH]c(/C=C2\C(=O)Nc3ccc(S(=O)(=O)N(C)c4cccc(Cl)c4)cc32)c(C)c1C(=O)N1CCN(C)CC1 and give its measured Growth Rate.
A: 0

Q: Consider the molecule O=C(NCc1ncc(C(F)(F)F)cc1Cl)c1ccc2c(c1)C1(CCS(=O)(=O)CC1)[C@H](C1CC1)N2S(=O)(=O)c1ccc(F)cc1 and give its measured Growth Rate.
A: 1

Q: Consider the molecule COc1cccc([C@@H](C)NCCCc2ccccc2Cl)c1.Cl [TECALCET HYDROCHLORIDE] and give its measured Growth Rate.
A: 0

Q: Consider the molecule CN(c1ccnc(CNc2nc(Nc3ccc4c(c3)CC(=O)N4)ncc2C(F)(F)F)n1)S(C)(=O)=O and give its measured Growth Rate.
A: 0

Q: Consider the molecule Cc1cccc(-c2cnc3occ(-c4ccc(C(=O)O)c(C5CCCC5)c4)c3c2)c1 and give its measured Growth Rate.
A: 1

Q: Consider the molecule O=C(c1ccc(F)cc1)N1CC(COc2ccc(Br)cc2)(C(=O)O)C1 and give its measured Growth Rate.
A: 0

Q: Consider the molecule CN1CCC[C@@H]1CCO[C@](C)(c1ccccc1)c1ccc(Cl)cc1.O=C(O)/C=C/C(=O)O [CLEMASTINE FUMARATE] and give its measured Growth Rate.
A: 0

Q: Consider the molecule CC(=O)Nc1c(C(C)=O)c(=O)n(C)c2nc(-c3ccc(Cl)cc3Cl)c(-c3ccc(Cl)cc3)cc12 and give its measured Growth Rate.
A: 0

Q: Consider the molecule C[S+]([O-])c1ccc(-c2nc(-c3ccncc3)c(-c3ccc(F)cc3)[nH]2)cc1 (configuration not stated) and give its measured Growth Rate.
A: 0

Q: Consider the molecule Cc1cccc([C@H](C)c2c[nH]cn2)c1C.Cl [DEXMEDETOMIDINE HYDROCHLORIDE] and give its measured Growth Rate.
A: 0

Q: Consider the molecule N#CC(Cc1ccc(O)cc1)c1ccc(O)cc1 (configuration not stated) and give its measured Growth Rate.
A: 0
